Exercise: state measured TGI for each of the compounds provided.
test system: UACC-62 melanoma; assay: NCI tumour cell line growth inhibition, 48 h

Req: Which measured TGI belongs to CCOC(=O)/C=C/[C@@H](CC)O[Si](C(C)C)(C(C)C)C(C)C , tested on UACC-62 melanoma?
Resp: > 100 µM

Req: Which measured TGI belongs to Cc1csc(-n2c(C)nc3cc(Cl)ccc3c2=O)n1 , tested on UACC-62 melanoma?
Resp: > 100 µM

Req: Which measured TGI belongs to S=c1c2ccccc2c(=S)n2n1CC=CC2 , tested on UACC-62 melanoma?
Resp: > 100 µM

Req: Which measured TGI belongs to O=c1[nH]c2ccc(CC(=S)N3CCCCC3)cc2s1 , tested on UACC-62 melanoma?
Resp: > 100 µM

Req: Which measured TGI belongs to CCCCNC1=C(C(=O)OCC)/C(=N/NC(=O)c2ccccc2O)CO1 , tested on UACC-62 melanoma?
Resp: > 100 µM

Req: Which measured TGI belongs to CCNC(=S)N/N=C(\C)c1cccc(C)n1 , tested on UACC-62 melanoma?
Resp: 41.3 µM

Req: Which measured TGI belongs to CC(C)(C)C1=C(Br)C(OC(=O)C(F)(F)F)(C(C)(C)C)OP1(=O)c1ccccc1 (stereo not drawn) , tested on UACC-62 melanoma?
Resp: 95.4 µM

Req: Which measured TGI belongs to O=Cc1ccc(N2CCN(c3ccc(C=O)cc3)CC2)cc1 , tested on UACC-62 melanoma?
Resp: > 100 µM

Req: Which measured TGI belongs to CC(C)c1ccc(/C=C2\CSCC3=C2N=C2SCC(=O)N2C3c2ccc(C(C)C)cc2)cc1 (stereo not drawn) , tested on UACC-62 melanoma?
Resp: > 100 µM

Req: Which measured TGI belongs to O=C(/C=C/c1ccccc1)CCC1C(=O)NC(=S)NC1=O , tested on UACC-62 melanoma?
Resp: > 100 µM

Req: Which measured TGI belongs to Cc1ccc(S(=O)(=O)Nn2c(O)c(C#N)c(-c3ccc([N+](=O)[O-])cc3)c(C#N)c2=O)cc1 , tested on UACC-62 melanoma?
Resp: > 100 µM

Req: Which measured TGI belongs to O=C(NCCCCCN1CCC2(CCCCC2)CC1)C(C1CCCCC1)C1CCCCC1 , tested on UACC-62 melanoma?
Resp: 7.2 µM

Req: Which measured TGI belongs to CN(C)CN(C)c1nc(N(C)C)nc(N(C)CN(C)C)n1 , tested on UACC-62 melanoma?
Resp: 40.9 µM

Req: Which measured TGI belongs to O=c1[nH]cc(C(F)(C(F)(F)F)C(F)(F)F)c(=O)[nH]1 , tested on UACC-62 melanoma?
Resp: > 100 µM

Req: Which measured TGI belongs to COc1ccc(C(=O)c2cc3c(N)c(C(=O)Nc4cccc(OC)c4)sc3nc2C)cc1 , tested on UACC-62 melanoma?
Resp: > 100 µM

Req: Which measured TGI belongs to CCCCCCCCCCCCCCCC1(OC)C[N+](C)(C)CCO1 (stereo not drawn) , tested on UACC-62 melanoma?
Resp: 7.64 µM

Req: Which measured TGI belongs to O=S1(=O)c2ccccc2N=C(c2ccccc2Cl)CC1c1ccc(F)cc1 (stereo not drawn) , tested on UACC-62 melanoma?
Resp: 32 µM

Req: Which measured TGI belongs to NNC(=O)C(O)C(O)C(=O)NN (stereo not drawn) , tested on UACC-62 melanoma?
Resp: > 100 µM

Req: Which measured TGI belongs to Cc1ccc(S[C@@H](C)[C@@](O)(C(N)=O)c2ccccc2)cc1 , tested on UACC-62 melanoma?
Resp: > 100 µM

Req: Which measured TGI belongs to CN1CCC2(CC1)C(=NC1CCCCC1)NC(=O)N2c1ccccc1 , tested on UACC-62 melanoma?
Resp: > 100 µM

Req: Which measured TGI belongs to NS(=O)(=O)c1ccc(N=Nc2ccc(O)c(C(=O)O)c2)cc1 , tested on UACC-62 melanoma?
Resp: > 100 µM

Req: Which measured TGI belongs to COc1cc2ccc3ccncc3c2cc1OC , tested on UACC-62 melanoma?
Resp: > 10 µM

Req: Which measured TGI belongs to N#CC(C(=O)CCCC(=O)Nc1ccc(Cl)cc1Cl)c1ccc(Cl)cc1 (stereo not drawn) , tested on UACC-62 melanoma?
Resp: > 100 µM

====

Exercise: state measured TGI for each of the compounds provided.
system: OVCAR-8 ovarian; assay: NCI tumour cell line growth inhibition, 48 h
The response must be a number in µM with no trailing unit.

Req: # TGI lookup, item O=C(C=C=Nc1ccccc1)C(=O)N=C=Cc1ccccc1
Resp: 14.4

Req: # TGI lookup, item CC(C)[Si](OCC1CC(C#N)OC(C)(C)O1)(C(C)C)C(C)C (stereo unspecified)
Resp: 48

Req: # TGI lookup, item CCOC(=O)CCC(NC(=O)c1ccc(Nc2nc3ccccc3nc2C(=O)OCC)cc1)C(=O)OCC (stereo unspecified)
Resp: 7.97

====

system: CCRF-CEM leukemia; experiment: NCI tumour cell line growth inhibition, 48 h
Readout: TGI (µM)
The response must be a number in µM with no trailing unit.

Req: # TGI lookup, item O=[N+]([O-])/C(C(Cl)=C(Cl)Cl)=C(/Nc1ccccc1)Sc1ccccc1
Resp: 36.6

Req: # TGI lookup, item c1ccc(-c2ccnc3c2ccc2c(-c4ccccc4)ccnc23)cc1
Resp: 2.84

Req: # TGI lookup, item Cc1c(Cl)c(C)c(Cc2c(C)c(Cl)c(C)c(Cl)c2O)c(O)c1Cl
Resp: 12.6

Req: # TGI lookup, item CN(C)/C=C/C=C(/C=N/S(=O)(=O)C(F)(F)F)C1C=CN(S(=O)(=O)C(F)(F)F)C=C1
Resp: 79.9

====

Exercise: state measured TGI for each of the compounds provided.
tested on: OVCAR-5 ovarian; test: NCI tumour cell line growth inhibition, 48 h

Req: # TGI lookup, item O=C(O)CCc1nc(-c2ccccc2-n2cccc2)no1
Resp: > 100 µM

Req: # TGI lookup, item CC1=CC(=O)NP(=O)(C23CC4CC(CC(C4)C2)C3)N1 (configuration not stated)
Resp: > 100 µM

Req: # TGI lookup, item C/C(=N\NC(N)=S)c1ccc(C2CCCCC2)cc1
Resp: 35.1 µM

Req: # TGI lookup, item Cc1cc(Br)cc(C)c1NC(=O)C(=O)Nn1c(=S)[nH]c2ccccc2c1=O
Resp: > 100 µM

Req: # TGI lookup, item Cc1ccc2nc(NC(=O)C(=O)CC(=O)c3cccc4ccccc34)sc2c1
Resp: > 100 µM

Req: # TGI lookup, item O=S1(=O)c2ccccc2N=C(c2ccccc2Cl)CC1c1ccc(F)cc1 (configuration not stated)
Resp: 30.7 µM

Req: # TGI lookup, item COC1CC(OC2C(C)OC(OC3C(C)OC(OC4C(C)OC(O[C@H]5CC[C@@]6(C)C(=CC[C@]7(O)[C@@H]6C[C@@H](O)[C@@]6(C)[C@]7(O)CC[C@@]6(O)C(C)=O)C5)CC4OC)CC3OC)CC2OC)OC(C)C1O (some centres not stated)
Resp: > 12.5 µM

Req: # TGI lookup, item CC(=O)c1sc2[n+](c1C)C(=O)/C(=C\c1ccccc1Cl)S2
Resp: 50.1 µM

Req: # TGI lookup, item O=c1[nH]c2ccc([N+](=O)[O-])cc2nc1/C=C(\O)c1ccccc1
Resp: > 100 µM

Req: # TGI lookup, item Cc1ccc(/C=C2/N=C(N/N=C\c3ccccc3)NC2=O)cc1
Resp: > 100 µM

Req: # TGI lookup, item CCc1cc(Cc2ccc(C)c(NC(=O)C(=O)C3C(=O)NC(=O)NC3=O)c2CC)cc(C)c1NC(=O)C(=O)C1C(=O)NC(=O)NC1=O
Resp: > 100 µM

Req: # TGI lookup, item CCOC(=O)CCC(NC(=O)c1ccc(Nc2nc3ccccc3nc2C(=O)OCC)cc1)C(=O)OCC (configuration not stated)
Resp: > 56.4 µM

Req: # TGI lookup, item O=C(Cc1ccccc1)NN1C(=O)/C(=C\c2ccccc2O)SC1=Nc1ccccc1
Resp: > 100 µM

Req: # TGI lookup, item Cc1c(O)c(=O)ccn1CCc1ccc(O)cc1
Resp: > 100 µM

Req: # TGI lookup, item CCCN1CCC=C(c2ccc(Nc3nc(Nc4ccccc4C(N)=O)c4cc[nH]c4n3)c(C)c2)C1
Resp: > 25 µM

Req: # TGI lookup, item C=CC(C)(O)CC/C=C(\CO)C(=O)OC1C(C)OC(O[C@](C)(C=C)CC/C=C(\CO)C(=O)O[C@H]2C[C@@]3(C(=O)OC4OC(CO)C(O)C(O)C4OC4OC(C)C(OC5OC(CO)C(O)C5O)C(OC5OC(CO)C(O)C(O)C5O)C4O)C(CC2(C)C)C2=CCC4[C@@]5(C)CC[C@H](OC6OC(COC7OC(C)C(O)C(O)C7OC7OCC(O)C(O)C7O)C(O)C(O)C6NC(C)=O)C(C)(C)C5CC[C@@]4(C)[C@]2(C)C[C@H]3O)C(O)C1O (some centres not stated)
Resp: 5.95 µM

Req: # TGI lookup, item CCOC(=O)C(C)N1C(=O)c2ccccc2S1(=O)=O (configuration not stated)
Resp: > 100 µM

Req: # TGI lookup, item CCOC(=O)C(C(=O)COC(C)(C)C)[C@@H]1C=C[C@H](OC(C)=O)C1 (some centres not stated)
Resp: > 100 µM

Req: # TGI lookup, item CN1CN(C(=O)N2CN(C)C(=O)N(C)C2)CN(C)C1=O
Resp: > 100 µM

Req: # TGI lookup, item Cc1c(Cl)c(C)c(Cc2c(C)c(Cl)c(C)c(Cl)c2O)c(O)c1Cl
Resp: 14.4 µM

Req: # TGI lookup, item CC(C)(C)[Si](C)(C)OC[C@H](/C=C\CCCC(=O)O)NC1(c2ccccc2)c2ccccc2-c2ccccc21
Resp: 76.6 µM

Req: # TGI lookup, item O=C(NOCCO)c1cc(CN2OCCCC2=O)c(F)c(F)c1Nc1ccc(I)cc1F
Resp: > 100 µM

Req: # TGI lookup, item COc1ccc(CNc2nc3ccccc3nc2C(=O)O)cc1
Resp: > 100 µM

Req: # TGI lookup, item COc1ccc(C2=Nc3c/c(=C\c4c(O)[nH]c5cc(Cl)ccc45)ccc3=N2)cc1
Resp: 60 µM

Req: # TGI lookup, item CC/C(N)=N\NC(=O)OC(C)(C)C
Resp: > 100 µM

Req: # TGI lookup, item Cc1ccccc1NC(=O)Cc1csc(N=Nc2c(O)[nH]c3ccccc23)n1
Resp: > 100 µM

Req: # TGI lookup, item COc1cc2c3c(cc(Cl)nc3c1OC)C(O)(CC(=O)c1ccccc1)C(=O)N2 (configuration not stated)
Resp: 35.3 µM

Req: # TGI lookup, item CCNC(=S)N/N=C(\C)c1cccc(C)n1
Resp: > 100 µM

Req: # TGI lookup, item NC(=O)c1ccc(N(C(N)=O)c2c(F)cccc2F)nc1-c1ccc(F)cc1F
Resp: > 100 µM

Req: # TGI lookup, item NS(=O)(=O)c1ccc(N=Nc2ccc(O)c(C(=O)O)c2)cc1
Resp: > 100 µM

Req: # TGI lookup, item Nc1nc(N)c2c(n1)NC(c1sc(Cl)nc1Cl)CC(c1ccc3c(c1)OCO3)=N2 (configuration not stated)
Resp: 33 µM

Req: # TGI lookup, item CCOC(=O)/C=C/[C@@H](CC)O[Si](C(C)C)(C(C)C)C(C)C
Resp: > 100 µM

Req: # TGI lookup, item S=c1c2ccccc2c(=S)n2n1CC=CC2
Resp: > 100 µM

Req: # TGI lookup, item Cc1ccc(/C=C2\N=C(N3CCCC(CO)C3)NC2=O)cc1 (configuration not stated)
Resp: > 100 µM

Req: # TGI lookup, item CN(C)CCNC(=O)c1c(O)ccc2c1c1c(n2CCc2ccccc2)C(=O)c2ccccc2C1=O
Resp: 29.5 µM

Req: # TGI lookup, item CC(C)(C)Sc1nnc(SC(C)(C)C)c2c(=O)[nH]nc(SC(C)(C)C)c12
Resp: 16.9 µM

Req: # TGI lookup, item C=C1CC2[C@H](C)C(=O)CCC2(C)C2=C1C1CCC(C(C)CCC(=C)C(C)C(=O)O)C1(C)CC2=O (some centres not stated)
Resp: > 100 µM
